Hey, just so you know, these numbers are from paper doi:10.1101/2022.12.07.519454v2.

yeast Sin3 PAH2 domain (Saccharomyces cerevisiae, UniProt P22579): reported pKi for various molecules.
One number for each entry, as −log10 of the molar value.

[
  {
    "molecule": "C[C@H](NC(=O)C1C(=O)N=C2C=CC=CN2C1O)c1ccccc1 (some centres unmarked)",
    "pKi": 4.41
  }
]

Shift focus to the following entry.
What pKi value was documented for this molecule, C[C@@H](NC(=O)C1C(=O)N=C2C=CC=CN2C1O)c1ccccc1 (some centres unmarked) ?
4.79

----------
Biological target: yeast Sin3 PAH2 domain (Saccharomyces cerevisiae, UniProt P22579)
Sequence (P22579 402-473): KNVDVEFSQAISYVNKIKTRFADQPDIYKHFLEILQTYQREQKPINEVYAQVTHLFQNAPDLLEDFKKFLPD
Assay: fluorescence polarization displacement of FITC-Ume6 SID peptide
Assay type: binding
readout: IC50 (µM)
One number for each entry, in µM.

[
  {
    "compound": "C[C@@H](NC(=O)C1C(=O)N=C2C=CC=CN2C1O)c1ccccc1 (some centres unmarked) [E6R]",
    "subject of test": "yeast Sin3 PAH2 domain (Saccharomyces cerevisiae, UniProt P22579)",
    "IC50 [µM]": 74.5
  }
]

Shift focus to the following entry.
Return IC50 measured with yeast Sin3 PAH2 domain (Saccharomyces cerevisiae, UniProt P22579) given this compound: C[C@H](NC(=O)C1C(=O)N=C2C=CC=CN2C1O)c1ccccc1 (some centres unmarked) [E6S]
174
